From: patent US9902736B2

- System: CaEs-17
- assay: Solid tumor cell growth inhibition, MTT, 72 h
- Assay type: cell-based
- test.conditions: Homo sapiens, CaEs17
Let's look at some compounds and their measured IC50.
Return type: number; implicit unit µg/mL.

1) C=C1C(=O)[C@]23[C@H](OC(=O)c4ccc(C)cc4)[C@H]1CC[C@H]2[C@@]12CO[C@@]3(O)[C@@H](O)[C@@H]1C(C)(C)CCC2=O [BS-OR-004] | 0.88
2) C=C1C(=O)[C@]23[C@H](OC(=O)/C=C/c4ccccc4)[C@H]1CC[C@H]2[C@@]12CO[C@@]3(O)[C@@H](O)[C@@H]1C(C)(C)CCC2=O [BS-OR-019] | 0.89

Recorded IC50 for C=C1C(=O)[C@]23[C@H](OC(=O)C4CC4)[C@H]1CC[C@H]2[C@@]12CO[C@@]3(O)[C@@H](O)[C@@H]1C(C)(C)CCC2=O [BS-OR-017] on CaEs-17 was 1.32

###

- Tested on: K562/ADR
- assay: Leukemia cell growth inhibition, MTT, 72 h
- Format: cell-based
- test.conditions: Homo sapiens
IC50 overview
State just the number; it will be interpreted in µg/mL.

1. C=C1C(=O)[C@]23[C@H](OC(=O)c4ccncc4)[C@H]1CC[C@H]2[C@@]12CO[C@@]3(O)[C@@H](O)[C@@H]1C(C)(C)CCC2=O | 0.75
2. C=C1C(=O)[C@]23[C@H](OC(=O)c4ccc(C)cc4)[C@H]1CC[C@H]2[C@@]12CO[C@@]3(O)[C@@H](O)[C@@H]1C(C)(C)CCC2OC(C)=O (stereo partly shown) | 0.36
3. C=C1C(=O)[C@]23[C@H](OC(=O)C4CCN(S(=O)(=O)c5ccccc5)CC4)[C@H]1CC[C@H]2[C@@]12CO[C@@]3(O)[C@@H](O)[C@@H]1C(C)(C)CCC2=O | 1.09

Item: C=C1C(=O)[C@]23[C@H](OC(=O)C4CC4)[C@H]1CC[C@H]2[C@@]12CO[C@@]3(O)[C@@H](O)[C@@H]1C(C)(C)CCC2=O | IC50: 0.52

###

- Tested on: SK-OV-3
- assay: Solid tumor cell growth inhibition, MTT, 72 h
- Format: cell-based
- test.conditions: Homo sapiens, SK-OV-3; 72 h, MTT; read-out: IC90 SK-OV-3
Flag rule - IC90 less than 4 µg/mL flags satisfied; the remaining entries get not satisfied.

Solved cases (2 shown):
1) C=C1C(=O)[C@]23[C@H](OC(=O)c4ccccc4)[C@H]1CC[C@H]2[C@@]12CO[C@@]3(O)[C@@H](O)[C@@H]1C(C)(C)CCC2=O [BS-OR-001] | satisfied
2) C=C1C(=O)[C@]23[C@H](OC(=O)/C=C/c4ccccc4)[C@H]1CC[C@H]2[C@@]12CO[C@@]3(O)[C@@H](O)[C@@H]1C(C)(C)CCC2=O [BS-OR-019] | satisfied

input: Lab log: compare recorded IC90 with 4 µg/mL; is it strictly lower for C=C1C(=O)[C@]23[C@H](OC(=O)c4ccc(OC)cc4)[C@H]1CC[C@H]2[C@@]12CO[C@@]3(O)[C@@H](O)[C@@H]1C(C)(C)CCC2=O [BS-OR-005] ?
output: satisfied

input: Does the reported IC90 of the following compound sit strictly below 4 µg/mL? C=C1C(=O)[C@]23[C@H](OC(=O)c4ccc(Cl)cc4)[C@H]1CC[C@H]2[C@@]12CO[C@@]3(O)[C@@H](O)[C@@H]1C(C)(C)CCC2=O [BS-OR-010]
output: not satisfied

input: Confirm or reject: IC90 of C=C1C(=O)[C@]23[C@H](OC(=O)c4ccccc4Cl)[C@H]1CC[C@H]2[C@@]12CO[C@@]3(O)[C@@H](O)[C@@H]1C(C)(C)CCC2=O [BS-OR-003] lies strictly below 4 µg/mL
output: satisfied

input: Criterion: IC90 strictly below 4 µg/mL. Is it met by C=C1C(=O)[C@]23[C@H](OC(=O)C4CCN(S(=O)(=O)CC)CC4)[C@H]1CC[C@H]2[C@@]12CO[C@@]3(O)[C@@H](O)[C@@H]1C(C)(C)CCC2=O [BS-OR-038] ?
output: not satisfied

input: IC90 under 4 µg/mL? Item: C=C1C(=O)[C@]23[C@H](O)[C@H]1CC[C@H]2[C@@]12CO[C@]3(O)[C@@H](O)[C@@H]1C(C)(C)CC[C@@H]2O [OR, Oridonin]
output: not satisfied

input: Does C=C1C(=O)[C@]23[C@H](OC(=O)c4ccc(OC)cc4)[C@H]1CC[C@H]2[C@@]12CO[C@@]3(O)[C@@H](O)[C@@H]1C(C)(C)CCC2OC(C)=O (some centres unmarked) [BS-OR-091] have IC90 strictly under 4 µg/mL?
output: not satisfied

input: Does C=C1C(=O)[C@]23[C@H](OC(=O)c4cccc(C)c4)[C@H]1CC[C@H]2[C@@]12CO[C@@]3(O)[C@@H](O)[C@@H]1C(C)(C)CCC2=O [BS-OR-008] have IC90 strictly under 4 µg/mL?
output: satisfied

input: # check: IC90 < 4 µg/mL for C=C1C(=O)[C@]23[C@H](OC(=O)C4CCN(S(=O)(=O)c5ccccc5[N+](=O)[O-])CC4)[C@H]1CC[C@H]2[C@@]12CO[C@@]3(O)[C@@H](O)[C@@H]1C(C)(C)CCC2=O [BS-OR-034]
output: not satisfied
